# assay: Water and atmospheric (storage) stability: total impurities by liquid chromatography after storage
# Format: physicochemical
# recorded_conditions: 50° C., 75% humidity; 3 weeks
Structures can show the parent of a compound that is named as a salt.
measured_property: Impurity content (%) at 50° C., 75% humidity, 3 weeks

input: So what does the record say about Impurity content (%) at 50° C., 75% humidity, 3 weeks for CCCOc1ccc(S(=O)(=O)N2CCN(CCO)CC2)cc1-c1nc2c(CCC)cn(CC)c2c(=O)[nH]1 [SK-3530 maleate salt] ?
output: 0.19

[P] CCCOc1ccc(S(=O)(=O)N2CCN(CCO)CC2)cc1-c1nc2c(CCC)cn(CC)c2c(=O)[nH]1 [SK-3530 citrate salt]
[Q] CCCOc1ccc(S(=O)(=O)N2CCN(CCO)CC2)cc1-c1nc2c(CCC)cn(CC)c2c(=O)[nH]1 [SK-3530 fumarate salt]
input: Please indicate which has the smaller reported Impurity content (%) at 50° C., 75% humidity, 3 weeks: P , or Q . Your answer should be the label of the entry you select.
output: Q

====

# assay: Water and atmospheric (storage) stability: total impurities by liquid chromatography after storage
# Format: physicochemical
# recorded_conditions: summary of Tables 1 to 3
Structures can show the parent of a compound that is named as a salt.
measured_property: Storage stability compared with the SK-3530 dihydrochloride salt

input: Suppose we examine the compound CCCOc1ccc(S(=O)(=O)N2CCN(CCO)CC2)cc1-c1nc2c(CCC)cn(CC)c2c(=O)[nH]1 [SK-3530 maleate salt] ; what Storage stability compared with the SK-3530 dihydrochloride salt value has been reported?
output: much superior

input: # input compound: CCCOc1ccc(S(=O)(=O)N2CCN(CCO)CC2)cc1-c1nc2c(CCC)cn(CC)c2c(=O)[nH]1 [SK-3530 fumarate salt] ; wanted: its Storage stability compared with the SK-3530 dihydrochloride salt
output: much superior

input: Bench note: what Storage stability compared with the SK-3530 dihydrochloride salt did CCCOc1ccc(S(=O)(=O)N2CCN(CCO)CC2)cc1-c1nc2c(CCC)cn(CC)c2c(=O)[nH]1 [SK-3530 hemitartrate salt] show?
output: much superior

input: Consider the compound shown here: CCCOc1ccc(S(=O)(=O)N2CCN(CCO)CC2)cc1-c1nc2c(CCC)cn(CC)c2c(=O)[nH]1 [SK-3530 gentisate salt] What is its recorded Storage stability compared with the SK-3530 dihydrochloride salt?
output: much superior

Okay, now this compound:
input: What measured Storage stability compared with the SK-3530 dihydrochloride salt goes with CCCOc1ccc(S(=O)(=O)N2CCN(CCO)CC2)cc1-c1nc2c(CCC)cn(CC)c2c(=O)[nH]1 [SK-3530 citrate salt] ?
output: much superior

====

# assay: Water and atmospheric (storage) stability: total impurities by liquid chromatography after storage
# Type: physicochemical
# recorded_conditions: 40° C., 60% humidity; initial
Counter-ions that a name gives are not always drawn.
measured_property: Impurity content (%) at 40° C., 60% humidity, Initial

input: State the recorded Impurity content (%) at 40° C., 60% humidity, Initial for this entry: CCCOc1ccc(S(=O)(=O)N2CCN(CCO)CC2)cc1-c1nc2c(CCC)cn(CC)c2c(=O)[nH]1 [SK-3530 hemitartrate salt]
output: 0.07

[P] CCCOc1ccc(S(=O)(=O)N2CCN(CCO)CC2)cc1-c1nc2c(CCC)cn(CC)c2c(=O)[nH]1 [SK-3530 fumarate salt]
[Q] CCCOc1ccc(S(=O)(=O)N2CCN(CCO)CC2)cc1-c1nc2c(CCC)cn(CC)c2c(=O)[nH]1 [SK-3530 citrate salt]
input: Response body: label of entry with the larger Impurity content (%) at 40° C., 60% humidity, Initial; valid values P , Q . Let me know the label of the one you choose.
output: Q

[A] CCCOc1ccc(S(=O)(=O)N2CCN(CCO)CC2)cc1-c1nc2c(CCC)cn(CC)c2c(=O)[nH]1 [SK-3530 gentisate salt]
[B] CCCOc1ccc(S(=O)(=O)N2CCN(CCO)CC2)cc1-c1nc2c(CCC)cn(CC)c2c(=O)[nH]1.Cl.Cl [SK-3530 dihydrochloride salt, reference compound]
input: Among A and B , whose measured Impurity content (%) at 40° C., 60% humidity, Initial is the smaller figure? Return value: the label identifying the chosen record.
output: A

====

# assay: Thermal stability test at 105° C., impurity content and color change
# Type: physicochemical
# recorded_conditions: dryer at 105° C.; 3 hours
# Protocol: The following Table 6 and Table 7 show the thermal stability test result for dihydrochloride salt (2HCl), gentisate, maleate, citrate, fumarate and hemitartrate salts of SK-3530. Each salt was placed on a Petri dish and kept in a dryer at 105° C. Following macroscopic observation at 3 hours and 48 hours later, the content of impurities was measured with liquid chromatography.
Counter-ions that a name gives are not always drawn.
measured_property: Impurity content (%), 3 hours

[1] CCCOc1ccc(S(=O)(=O)N2CCN(CCO)CC2)cc1-c1nc2c(CCC)cn(CC)c2c(=O)[nH]1 [SK-3530 maleate salt]
[2] CCCOc1ccc(S(=O)(=O)N2CCN(CCO)CC2)cc1-c1nc2c(CCC)cn(CC)c2c(=O)[nH]1 [SK-3530 citrate salt]
input: Input pair: 1 , 2 . Output: entry with lower Impurity content (%), 3 hours. Return value: the label identifying the chosen record.
output: 1

[P] CCCOc1ccc(S(=O)(=O)N2CCN(CCO)CC2)cc1-c1nc2c(CCC)cn(CC)c2c(=O)[nH]1 [SK-3530 hemitartrate salt]
[Q] CCCOc1ccc(S(=O)(=O)N2CCN(CCO)CC2)cc1-c1nc2c(CCC)cn(CC)c2c(=O)[nH]1.Cl.Cl [SK-3530 dihydrochloride salt, reference compound]
input: Which record would sort first by descending Impurity content (%), 3 hours, P or Q ? API: response body contains the label of the selected item.
output: Q
(Q: 3.06%, P: 0.14%)

====

# assay: Water and atmospheric (storage) stability: total impurities by liquid chromatography after storage
# Type: physicochemical
# recorded_conditions: 50° C., 75% humidity; initial
Structures can show the parent of a compound that is named as a salt.
measured_property: Impurity content (%) at 50° C., 75% humidity, Initial

Worked examples follow.
input: What Impurity content (%) at 50° C., 75% humidity, Initial value was documented for this molecule, CCCOc1ccc(S(=O)(=O)N2CCN(CCO)CC2)cc1-c1nc2c(CCC)cn(CC)c2c(=O)[nH]1 [SK-3530 maleate salt] ?
output: 0.12

input: If you can, please state the reported Impurity content (%) at 50° C., 75% humidity, Initial value of CCCOc1ccc(S(=O)(=O)N2CCN(CCO)CC2)cc1-c1nc2c(CCC)cn(CC)c2c(=O)[nH]1 [SK-3530 gentisate salt] .
output: 0.09

[P] CCCOc1ccc(S(=O)(=O)N2CCN(CCO)CC2)cc1-c1nc2c(CCC)cn(CC)c2c(=O)[nH]1.Cl.Cl [SK-3530 dihydrochloride salt, reference compound]
[Q] CCCOc1ccc(S(=O)(=O)N2CCN(CCO)CC2)cc1-c1nc2c(CCC)cn(CC)c2c(=O)[nH]1 [SK-3530 fumarate salt]
[R] CCCOc1ccc(S(=O)(=O)N2CCN(CCO)CC2)cc1-c1nc2c(CCC)cn(CC)c2c(=O)[nH]1 [SK-3530 hemitartrate salt]
[S] CCCOc1ccc(S(=O)(=O)N2CCN(CCO)CC2)cc1-c1nc2c(CCC)cn(CC)c2c(=O)[nH]1 [SK-3530 citrate salt]
input: Returns the items ordered by Impurity content (%) at 50° C., 75% humidity, Initial, from maximum to minimum. # output: labels, in the requested order
output: P, S, R, Q
(P: 0.20%, S: 0.12%, R: 0.07%, Q: 0.02%)

====

# assay: Water and atmospheric (storage) stability: total impurities by liquid chromatography after storage
# Type: physicochemical
# recorded_conditions: 40° C., 60% humidity; 3 weeks
# Protocol: This test is for confirming the storage stability of SK-3530 salt. A sufficient stability is required to process a drug into a particular medication form. […] The following Table 1 (25° C., 75% humidity), Table 2 (40° C., 60% humidity) and Table 3 (50° C., 75% humidity) show the content of total impurities measured by liquid chromatography after storing dihydrochloride (2HCl), gentisate, maleate, citrate, fumarate and hemitartrate salts of SK-3530 for 1 week and 3 weeks.
Where a name gives a salt, the structure may show the parent alone.
measured_property: Impurity content (%) at 40° C., 60% humidity, 3 weeks

Here's what some known entries look like.
input: # input molecule: CCCOc1ccc(S(=O)(=O)N2CCN(CCO)CC2)cc1-c1nc2c(CCC)cn(CC)c2c(=O)[nH]1 [SK-3530 hemitartrate salt] ; wanted: its Impurity content (%) at 40° C., 60% humidity, 3 weeks
output: 0.14

input: Reported Impurity content (%) at 40° C., 60% humidity, 3 weeks for CCCOc1ccc(S(=O)(=O)N2CCN(CCO)CC2)cc1-c1nc2c(CCC)cn(CC)c2c(=O)[nH]1 [SK-3530 fumarate salt] : what is it?
output: 0.05

input: Quick one: Impurity content (%) at 40° C., 60% humidity, 3 weeks for CCCOc1ccc(S(=O)(=O)N2CCN(CCO)CC2)cc1-c1nc2c(CCC)cn(CC)c2c(=O)[nH]1 [SK-3530 gentisate salt] ?
output: 0.10

input: Request the reported Impurity content (%) at 40° C., 60% humidity, 3 weeks associated with CCCOc1ccc(S(=O)(=O)N2CCN(CCO)CC2)cc1-c1nc2c(CCC)cn(CC)c2c(=O)[nH]1 [SK-3530 maleate salt]
output: 0.12

[a] CCCOc1ccc(S(=O)(=O)N2CCN(CCO)CC2)cc1-c1nc2c(CCC)cn(CC)c2c(=O)[nH]1 [SK-3530 citrate salt]
[b] CCCOc1ccc(S(=O)(=O)N2CCN(CCO)CC2)cc1-c1nc2c(CCC)cn(CC)c2c(=O)[nH]1.Cl.Cl [SK-3530 dihydrochloride salt, reference compound]
input: // pick larger Impurity content (%) at 40° C., 60% humidity, 3 weeks from pair: a vs b # reply format: chosen label
output: b
(b: 0.38%, a: 0.14%)
